Numbers sourced from patent US20240117334A1.

Reported fB Cleavage, 80% plasma EC50 values are given for each entry in this list.
Biological target: Human Factor B (human) (UniProt P00751)
Sequence (P00751 26-764 limits assumed): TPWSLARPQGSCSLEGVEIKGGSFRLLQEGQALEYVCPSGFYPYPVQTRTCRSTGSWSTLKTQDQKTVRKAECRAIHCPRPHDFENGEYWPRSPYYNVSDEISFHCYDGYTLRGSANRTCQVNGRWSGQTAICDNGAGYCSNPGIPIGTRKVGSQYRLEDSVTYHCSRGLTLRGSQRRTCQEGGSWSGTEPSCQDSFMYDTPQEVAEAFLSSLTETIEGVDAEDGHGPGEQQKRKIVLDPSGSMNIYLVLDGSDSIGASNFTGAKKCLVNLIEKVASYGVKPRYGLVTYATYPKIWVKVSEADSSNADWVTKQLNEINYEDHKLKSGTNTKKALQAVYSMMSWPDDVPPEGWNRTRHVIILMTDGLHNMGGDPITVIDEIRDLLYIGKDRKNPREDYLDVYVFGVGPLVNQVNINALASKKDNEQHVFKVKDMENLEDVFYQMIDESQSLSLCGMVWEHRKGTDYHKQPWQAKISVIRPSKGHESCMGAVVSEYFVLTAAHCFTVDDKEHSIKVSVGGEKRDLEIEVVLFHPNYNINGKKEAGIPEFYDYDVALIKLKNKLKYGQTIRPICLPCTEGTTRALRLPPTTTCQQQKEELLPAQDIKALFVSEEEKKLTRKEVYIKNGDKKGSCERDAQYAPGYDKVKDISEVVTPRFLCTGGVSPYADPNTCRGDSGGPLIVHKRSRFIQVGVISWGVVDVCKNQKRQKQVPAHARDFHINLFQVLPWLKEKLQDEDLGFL
Test: cell-based or functional assay
# value in µM; strip the unit string

Example cases with answers are listed next.
{"BINDER": "chymase C22S/K40M/F41R/L99Q/F173Y/D175R/S218I/A226R (enzyme) IIGGTESKPHSRPYMAYLEIVTSNGPSMRCGGFLIRRNFVLTAAHCAGRSITVTLGAHNITEEEDTWQKLEVIKQFRHPKYNTSTQHHDIMLLKLKEKASLTLAVGTLPFPSQFNFVPPGRMCRVAGWGRTGVLKPGSDTLQEVKLRLMDPQACSHYRRFDHNLQLCVGNPRKTKSAFKGDSGGPLLCAGVAQGIVSYGRIDAKPPRVFTRISHYRPWINQILQAN", "UNITS_TEXT": "µM", "fB Cleavage, 80% plasma EC50": 4.48}
{"BINDER": "chymase C22S/K40L/F41K/L99Q/F173Y/D175N/S218V/A226R (enzyme) IIGGTESKPHSRPYMAYLEIVTSNGPSLKCGGFLIRRNFVLTAAHCAGRSITVTLGAHNITEEEDTWQKLEVIKQFRHPKYNTSTQHHDIMLLKLKEKASLTLAVGTLPFPSQFNFVPPGRMCRVAGWGRTGVLKPGSDTLQEVKLRLMDPQACSHYRNFDHNLQLCVGNPRKTKSAFKGDSGGPLLCAGVAQGIVSYGRVDAKPPRVFTRISHYRPWINQILQAN", "UNITS_TEXT": "µM", "fB Cleavage, 80% plasma EC50": 5.67}
{"BINDER": "chymase C22S/K40M/F41K/L99N/F173Y/D175R/S218T/A226R (enzyme) IIGGTESKPHSRPYMAYLEIVTSNGPSMKCGGFLIRRNFVLTAAHCAGRSITVTLGAHNITEEEDTWQKLEVIKQFRHPKYNTSTNHHDIMLLKLKEKASLTLAVGTLPFPSQFNFVPPGRMCRVAGWGRTGVLKPGSDTLQEVKLRLMDPQACSHYRRFDHNLQLCVGNPRKTKSAFKGDSGGPLLCAGVAQGIVSYGRTDAKPPRVFTRISHYRPWINQILQAN", "UNITS_TEXT": "µM", "fB Cleavage, 80% plasma EC50": 4.13}
{"BINDER": "chymase C22S/K40M/F41R/L99Q/F173Y/D175R/S218V/A226R (enzyme) IIGGTESKPHSRPYMAYLEIVTSNGPSMRCGGFLIRRNFVLTAAHCAGRSITVTLGAHNITEEEDTWQKLEVIKQFRHPKYNTSTQHHDIMLLKLKEKASLTLAVGTLPFPSQFNFVPPGRMCRVAGWGRTGVLKPGSDTLQEVKLRLMDPQACSHYRRFDHNLQLCVGNPRKTKSAFKGDSGGPLLCAGVAQGIVSYGRVDAKPPRVFTRISHYRPWINQILQAN", "UNITS_TEXT": "µM", "fB Cleavage, 80% plasma EC50": 4.07}

Field: next binder
Find the measured fB Cleavage, 80% plasma EC50 of chymase C22S/K40M/F41R/L99H/F173Y/D175W/S218L/A226R (enzyme) IIGGTESKPHSRPYMAYLEIVTSNGPSMRCGGFLIRRNFVLTAAHCAGRSITVTLGAHNITEEEDTWQKLEVIKQFRHPKYNTSTHHHDIMLLKLKEKASLTLAVGTLPFPSQFNFVPPGRMCRVAGWGRTGVLKPGSDTLQEVKLRLMDPQACSHYRWFDHNLQLCVGNPRKTKSAFKGDSGGPLLCAGVAQGIVSYGRLDAKPPRVFTRISHYRPWINQILQAN and report it.
7.21
